- Experiment summary: Minimum inhibitory concentration against Streptococcus. species EF 6
- Type: functional
- Measurement conditions: Bacteria
Reported property: MIC (µg/mL)
Numbers only, in µg/mL.

Value sought for every listed molecule: MIC.
1. CC(=O)O[C@H]1C[C@@]2(C)[C@@H](CC(O)[C@H]3[C@@]4(C)CCC(O)C(C)[C@@H]4CC[C@]32C)/C1=C(\CCC=C(C)C)C(=O)O (some centres undefined)
2. CC(=O)O[C@H]1C[C@@]2(C)C(CC(O)[C@H]3[C@@]4(C)CCC(O)C(C)C4CC[C@]32C)C1[C@H](CCC=C(C)C)C(=O)O (some centres undefined)

[4, 4]

// data source = ChEMBL document CHEMBL1134596
